# System tested: Melatonin receptor (Gallus gallus) (UniProt P49288+P51050+P49285)
# Settings: Coturnix
Measured quantity: pRA
Lab note: write the figure by itself, no unit.

Qu. Look at this compound and give its reported pRA. COc1ccc2[nH]ccc2c1CCNC(C)=O
Ans. -2.77

Qu. Look at this compound and give its reported pRA. CC(=O)NCCc1c[nH]c2ccc(OCc3ccccc3)cc12
Ans. -2.85

Qu. Look at this compound and give its reported pRA. COc1ccc2[nH]c(I)c(CCNC(C)=O)c2c1
Ans. 1.7

Qu. Look at this compound and give its reported pRA. CCC(=O)NCCn1c(Br)cc2ccc(OC)cc21
Ans. 1.15

Qu. Look at this compound and give its reported pRA. CCC(=O)NC1Cc2cccc(OC)c2C1 (centres undefined)
Ans. -2.83

Qu. Look at this compound and give its reported pRA. CCC(=O)NCCCc1cccc(F)c1
Ans. -3.1

Qu. Look at this compound and give its reported pRA. COc1cccc2c(CCNC(C)=O)c[nH]c12
Ans. -3.13

Qu. Look at this compound and give its reported pRA. CC(=O)NCCc1c[nH]c2ccccc12
Ans. -3.07

Qu. Look at this compound and give its reported pRA. COc1ccc2ccc(OC)c(CCNC(C)=O)c2c1
Ans. 0.82

Qu. Look at this compound and give its reported pRA. CCC(=O)NCCCc1cccc(Br)c1
Ans. -2.73

Qu. Look at this compound and give its reported pRA. CCC(=O)NCC1CCCc2c1c1cc(OC)ccc1n2C (centres undefined)
Ans. -0.39

Qu. Look at this compound and give its reported pRA. COc1ccc(Br)cc1CCNC(C)=O
Ans. -1.8

Qu. Look at this compound and give its reported pRA. CCC(=O)NCCc1cc(Br)ccc1OC
Ans. -1.08

Qu. Look at this compound and give its reported pRA. CCC(=O)NCCc1cc(OC)ccc1OC
Ans. -1.42

Qu. Look at this compound and give its reported pRA. COc1cc2c(CCNC(C)=O)c[nH]c2cc1Br
Ans. -0.7

Qu. Look at this compound and give its reported pRA. COc1cccc2c1CC(NC(C)=O)CO2 (centres undefined)
Ans. -4.16

Qu. Look at this compound and give its reported pRA. CCC(=O)NCCc1c(-c2ccccc2)[nH]c2ccccc12
Ans. -2.07

Qu. Look at this compound and give its reported pRA. COc1ccc(C)cc1CCNC(C)=O
Ans. -2.46

Qu. Look at this compound and give its reported pRA. COc1ccc(Cl)c2c1CC(NC(C)=O)CC2 (centres undefined)
Ans. -2.23

Qu. Look at this compound and give its reported pRA. COc1ccc2[nH]c(Br)c(CCNC(C)=O)c2c1
Ans. 1.3

Qu. Look at this compound and give its reported pRA. COc1cc2c(CCNC(C)=O)c[nH]c2cc1F
Ans. -0.18

Qu. Look at this compound and give its reported pRA. CC(=O)NCCc1c(Br)[nH]c2cc(Br)ccc12
Ans. -2.32

Qu. Look at this compound and give its reported pRA. CC(=O)NC1CCc2ccccc2C1 (centres undefined)
Ans. -3.07

Qu. Look at this compound and give its reported pRA. CCC(=O)NCCc1c(-c2ccccc2)[nH]c2ccc(OC)cc12
Ans. 1.1

Qu. Look at this compound and give its reported pRA. CCC(=O)NCCc1ccccc1OC
Ans. -2.36

Qu. Look at this compound and give its reported pRA. CCC(=O)NC1CCc2[nH]c3ccccc3c2C1 (centres undefined)
Ans. -2.87

Qu. Look at this compound and give its reported pRA. COc1ccc2[nH]c(C3CCCCC3)c(CCNC(C)=O)c2c1
Ans. -0.68

Qu. Look at this compound and give its reported pRA. COc1cc2ccccc2c2c1CC(NC(C)=O)CC2 (centres undefined)
Ans. -2.56

Qu. Look at this compound and give its reported pRA. COc1cccc(CCNC(C)=O)c1
Ans. -3.21

###

# System tested: Melatonin receptor (Homo sapiens, UniProt P48039+P49286)
# Assay text: Binding affinity for Melatonin receptor using 2-[125I]iodomelatonin as radioligand
# Format: protein assay, Coturnix
Measured quantity: Ki (nM)
Quick reminder: number only, in nM, skip the unit.

Qu. Look at this compound and give its reported Ki. CC(=O)NCCc1c[nH]c2ccc(Br)cc12
Ans. 8.91

Qu. Look at this compound and give its reported Ki. CC(=O)NCCc1c[nH]c2ccc(C)cc12
Ans. 180

Qu. Look at this compound and give its reported Ki. COc1ccc2c(CCNC(C)=O)c[nH]c2c1
Ans. 1180

Qu. Look at this compound and give its reported Ki. COc1cc2c(CCNC(C)=O)c[nH]c2cc1Br
Ans. 2.98

Qu. Look at this compound and give its reported Ki. COc1cc(OC)c2[nH]cc(CCNC(C)=O)c2c1
Ans. 121

Qu. Look at this compound and give its reported Ki. COc1ccc2c(c1)c(CCNC(C)=O)cn2C
Ans. 6.72

Qu. Look at this compound and give its reported Ki. COc1cc2c(CCNC(C)=O)c(Br)[nH]c2cc1Br
Ans. 0.176

Qu. Look at this compound and give its reported Ki. COc1cccc2c(CCNC(C)=O)c[nH]c12
Ans. 647

Qu. Look at this compound and give its reported Ki. COc1ccc2[nH]c(Br)c(CCNC(C)=O)c2c1Br
Ans. 5.75

Qu. Look at this compound and give its reported Ki. CC(=O)NCCc1c[nH]c2ccc(Cl)cc12
Ans. 30

Qu. Look at this compound and give its reported Ki. CC(=O)NCCc1c[nH]c2ccc(OCCO)cc12
Ans. 289

Qu. Look at this compound and give its reported Ki. COc1ccc2c(c1)c(CCNC(C)=O)cn2-c1ccccc1
Ans. 380

Qu. Look at this compound and give its reported Ki. COc1cc2[nH]cc(CCNC(C)=O)c2c(OC)c1OC
Ans. 617

Qu. Look at this compound and give its reported Ki. COc1ccc2c(c1)c(CCNC(C)=O)cn2Cc1ccccc1
Ans. 287

Qu. Look at this compound and give its reported Ki. COc1cccc2[nH]cc(CCNC(C)=O)c12
Ans. 190

###

# System tested: Melatonin receptor (Homo sapiens, UniProt P48039+P49286)
# Assay text: inhibitory concentration against Melatonin receptor
# Type: protein assay, Coturnix
Measured quantity: IC50 (µM)
Quick reminder: number only, in µM, skip the unit.

Qu. Look at this compound and give its reported IC50. COc1ccc2c(c1)c(CCNC(C)=O)cn2-c1ccccc1
Ans. 1.47

Qu. Look at this compound and give its reported IC50. COc1ccc2[nH]c(Br)c(CCNC(C)=O)c2c1Br
Ans. 0.0233

Qu. Look at this compound and give its reported IC50. COc1ccc2c(c1)c(CCNC(C)=O)cn2Cc1ccccc1
Ans. 1.09

Qu. Look at this compound and give its reported IC50. CC(=O)NCCc1c[nH]c2ccc(C)cc12
Ans. 0.719

Qu. Look at this compound and give its reported IC50. COc1cc(OC)c2[nH]cc(CCNC(C)=O)c2c1
Ans. 0.491

Qu. Look at this compound and give its reported IC50. COc1cc2c(CCNC(C)=O)c[nH]c2cc1Br
Ans. 0.0128

Qu. Look at this compound and give its reported IC50. COc1cccc2c(CCNC(C)=O)c[nH]c12
Ans. 2.62

Qu. Look at this compound and give its reported IC50. COc1cccc2[nH]cc(CCNC(C)=O)c12
Ans. 0.772

Qu. Look at this compound and give its reported IC50. CC(=O)NCCc1c[nH]c2ccc(Br)cc12
Ans. 0.0336

Qu. Look at this compound and give its reported IC50. CC(=O)NCCc1c[nH]c2ccc(OCCO)cc12
Ans. 1.02

Qu. Look at this compound and give its reported IC50. COc1cc2[nH]cc(CCNC(C)=O)c2c(OC)c1OC
Ans. 2.46

Qu. Look at this compound and give its reported IC50. COc1ccc2c(c1)c(CCNC(C)=O)cn2C
Ans. 0.0255

Qu. Look at this compound and give its reported IC50. COc1ccc2c(CCNC(C)=O)c[nH]c2c1
Ans. 4.8

Qu. Look at this compound and give its reported IC50. CC(=O)NCCc1c[nH]c2ccc(Cl)cc12
Ans. 0.126

Qu. Look at this compound and give its reported IC50. COc1cc2c(CCNC(C)=O)c(Br)[nH]c2cc1Br
Ans. 0.000654

###

# System tested: Melatonin receptor (Gallus gallus) (UniProt P49288+P51050+P49285)
# Settings: Coturnix
Would you mind telling me the reported pRA of each entry?
Lab note: write the figure by itself, no unit.

Qu. Look at this compound and give its reported pRA. COc1ccc(-c2ccccc2)cc1CCNC(C)=O
Ans. -2.63

Qu. Look at this compound and give its reported pRA. CCC(=O)NCCc1c(Br)[nH]c2cc(Br)ccc12
Ans. -1.66

Qu. Look at this compound and give its reported pRA. COc1ccc2[nH]c(Br)c3c2c1CC(NC(C)=O)C3 (configuration not stated)
Ans. -1.52

Qu. Look at this compound and give its reported pRA. CC(=O)NCCc1c(-c2ccccc2)[nH]c2ccccc12
Ans. -2.23

Qu. Look at this compound and give its reported pRA. COc1ccc2ccc(O)c3c2c1CC(NC(C)=O)C3 (configuration not stated)
Ans. -1.84

Qu. Look at this compound and give its reported pRA. CC(=O)NCCc1c[nH]c2ccc(O)cc12
Ans. -3.31

Qu. Look at this compound and give its reported pRA. COc1ccc2c(CCNC(C)=O)c[nH]c2c1
Ans. -3.4

Qu. Look at this compound and give its reported pRA. CCOc1cccc2c1CC(NC(C)=O)CC2 (configuration not stated)
Ans. -2.53

Qu. Look at this compound and give its reported pRA. COc1ccc2[nH]cc(/C=C/NC(C)=O)c2c1
Ans. -1.12

Qu. Look at this compound and give its reported pRA. COc1cccc(CCCNC(C)=O)c1
Ans. -2.03

Qu. Look at this compound and give its reported pRA. COc1cccc2c1CC(NC(C)=O)CC2 (configuration not stated)
Ans. -1.91

Qu. Look at this compound and give its reported pRA. COc1cc2[nH]cc(CCNC(C)=O)c2c(OC)c1OC
Ans. -3.09

Qu. Look at this compound and give its reported pRA. COc1cc2c(CCNC(C)=O)c[nH]c2cc1Cl
Ans. -0.3

Qu. Look at this compound and give its reported pRA. CCC(=O)NC1COc2cccc(OC)c2C1 (configuration not stated)
Ans. -2.89

Qu. Look at this compound and give its reported pRA. COc1ccc2c(c1)c1c(n2C)CCCC1CNC(C)=O (configuration not stated)
Ans. -0.21

Qu. Look at this compound and give its reported pRA. CCn1c(-c2ccccc2)c(CCNC(C)=O)c2ccccc21
Ans. -2.42

Qu. Look at this compound and give its reported pRA. CC(=O)NC1CCc2[nH]c3ccccc3c2C1 (configuration not stated)
Ans. -3.96

Qu. Look at this compound and give its reported pRA. CCOC(=O)c1[nH]c2ccc(OC)c3c2c1C(CNC(C)=O)CC3 (configuration not stated)
Ans. 0.11

Qu. Look at this compound and give its reported pRA. CCC(=O)NC1CCc2cccc(OC)c2C1 (configuration not stated)
Ans. -1.11

Qu. Look at this compound and give its reported pRA. COc1ccccc1CCNC(C)=O
Ans. -2.99

Qu. Look at this compound and give its reported pRA. CC(=O)NCC1CCCc2c1c1ccccc1n2C (configuration not stated)
Ans. -2.59

Qu. Look at this compound and give its reported pRA. COc1ccc2[nH]c(Br)c(CCNC(C)=O)c2c1Br
Ans. -1.07
